# Tested on: AncCR DBD (reconstructed ancestral)
# method.notes: fluorescence polarization
# condition.parameters: 5mC at CpG; methyl at mC10 of AGAACGGAGCGTTCT (C12 of strand) seen in structure, other positions in Figure 3A; FP: 20 mM Tris-HCl pH 7.4, 150 mM NaCl, 5% glycerol; 10 nM FAM-DNA, 1 nM-50 uM DBD; temperature not stated
attribute.measured: Kd (nM)
Value expressed in nM; do not type the unit.

Qu. Name the reported Kd value associated with the sequence CCAGAACGGAGCGTTCTGA (double strand) [5mC-GBS]
Ans. 318

* * *

# Test system: AncGR1 DBD (reconstructed ancestral)
# method.notes: fluorescence polarization
# condition.parameters: FP: 20 mM Tris-HCl pH 7.4, 150 mM NaCl, 5% glycerol; 10 nM FAM-DNA, 1 nM-50 uM DBD; temperature not stated
attribute.measured: Kd (nM)
Value expressed in nM; do not type the unit.

Qu. Name the reported Kd value associated with the sequence CCAGAACGGAGCGTTCTGA / TCAGAACGCTCCGTTCTG [pre-GBS]
Ans. 139

* * *

# System: AncGR1 DBD (reconstructed ancestral)
# method.notes: fluorescence polarization
# condition.parameters: 5mC at CpG; methyl at mC10 of AGAACGGAGCGTTCT (C12 of strand) seen in structure, other positions in Figure 3A; FP: 20 mM Tris-HCl pH 7.4, 150 mM NaCl, 5% glycerol; 10 nM FAM-DNA, 1 nM-50 uM DBD; temperature not stated
attribute.measured: Kd (nM)
Value expressed in nM; do not type the unit.

Qu. Name the reported Kd value associated with the sequence CCAGAACGGAGCGTTCTGA (double strand) [5mC-GBS]
Ans. 78

* * *

# System: AncCR DBD (reconstructed ancestral)
# method.notes: fluorescence polarization
# condition.parameters: FP: 20 mM Tris-HCl pH 7.4, 150 mM NaCl, 5% glycerol; 10 nM FAM-DNA, 1 nM-50 uM DBD; temperature not stated
attribute.measured: Kd (nM)
Value expressed in nM; do not type the unit.

Qu. Lab note: need Kd for CCAGAACGGAGCGTTCTGA / TCAGAACGCTCCGTTCTG [pre-GBS] on AncCR DBD (reconstructed ancestral), anyone have it?
Ans. 575
